System: CCRF-CEM
Experiment: NCI tumour cell line growth inhibition, 48 h
Activity calls are given as the source filed them. Cut-off read from the data, not from the text of the source: active = GI50 up to about 1.1 µM and inactive = higher.
Outcome field: choose from t (active), f (inactive)

Exam item: Any idea what this test logged for `CC(C)OC(=O)c1cccnc1/C=N/O` ?
Marked response: f

Exam item: Any idea what this test logged for COc1ccc(S(=O)(=O)n2c3c(c4ccccc42)[C@@H]2[C@@H](CCCN2C(=O)C[S+]([O-])c2ccc(C)cc2)[C@H](Cl)C3)cc1 (stereo partly specified) ?
Marked response: f

Exam item: Any idea what this test logged for C=C(C)C(O)C(O)c1c(OC)ccc2ccc(=O)oc12 (stereo unspecified) ?
Marked response: f

Exam item: Any idea what this test logged for `CCOC(=O)CN1C(=O)c2c(c(C)n(-c3ccccc3)c2C)C1=O` ?
Marked response: f

Exam item: Any idea what this test logged for COC(=O)C12C(=O)CC3CCC1C32C(=O)OC (stereo unspecified) ?
Marked response: f

====

# key: entry, value: GI50
Tested on: KM12
Test: NCI tumour cell line growth inhibition, 48 h
Activity calls are given as the source filed them. Rule as the data show it: active = GI50 up to about 1.1 µM and inactive = higher.

For orientation, consider the following solved cases.
>>> result("CCOP(=O)(OCC)C(NC(=O)C(C(F)(F)F)C(F)(F)F)c1ccccc1 (stereo unspecified)")
"> 100 µM (inactive)"
>>> result("Oc1ccc(-c2nn3c(CCCCCCCCc4nnc5sc(-c6ccc(O)cc6)nn45)nnc3s2)cc1")
"> 100 µM (inactive)"
>>> result("O=C1CCCCC1CN1CCCCC1 (stereo unspecified)")
"> 100 µM (inactive)"
>>> result("CN(Cc1cc(Cl)cc(Cl)c1O)Cc1c(O)ccc2ccccc12")
"19.9 µM (inactive)"

Exam item: Provide measured GI50 value, entry: Cn1nnc2c(C(N)=O)ncn2c1=O [TEMOZOLOMIDE]
Marked response: > 100 µM (inactive)

Exam item: Provide measured GI50 value, entry: `CCCCCCCC/C=C\CCCCCCC/C=C1\C[C@](/C=C/C(=O)OC)(CO)OC1=O`
Marked response: 3.37 µM (inactive)

Exam item: Provide measured GI50 value, entry: `C=CCn1c(-c2ccc([N+](=O)[O-])cc2)csc1=N`
Marked response: 36.6 µM (inactive)

Exam item: Provide measured GI50 value, entry: NC1CCC2(O)c3ccccc3C2C1 (stereo unspecified)
Marked response: > 100 µM (inactive)

====

Tested on: HCT-116
Assay: NCI tumour cell line growth inhibition, 48 h
Activity calls are given as the source filed them. No stated cut-off is given here; in the data, active = GI50 up to about 1.1 µM and inactive = higher.
# key: entry, value: GI50

For orientation, consider the following solved cases.
>>> result("Oc1ccc2c(c1)-c1c(c3cc(O)ccc3n1CCN1CCOCC1)CC2")
"19.1 µM (inactive)"
>>> result("CC1C(=O)C(C)C(c2ccccc2)N(N=O)C1c1ccccc1 (configuration not stated)")
"127 µM (inactive)"
>>> result("COC(=O)/C=C1/OC(c2ccc(C)cc2C)=CC1=O")
"11.5 µM (inactive)"
>>> result("CCC/C=C/C=C/C1CC(O)C(O)C(=O)C1CO (configuration not stated)")
"> 100 µM (inactive)"
>>> result("COc1ccc2nc3ccc(OC)cc3c(S(=O)(=O)Cc3ccc([N+](=O)[O-])cc3)c2c1")
"> 100 µM (inactive)"

Now take the following compound into account.
Exam item: Provide measured GI50 value, entry: `COc1ccc2c(c1)CCN=C2Cc1ccccc1CCCl`
Marked response: 11.9 µM (inactive)

src = ChEMBL document CHEMBL1201862
